target.entity: human glucagon receptor (GCGR), expressed on CHO-K1 cells (human, UniProt P47871 26-477)
Sequence (P47871 26-477): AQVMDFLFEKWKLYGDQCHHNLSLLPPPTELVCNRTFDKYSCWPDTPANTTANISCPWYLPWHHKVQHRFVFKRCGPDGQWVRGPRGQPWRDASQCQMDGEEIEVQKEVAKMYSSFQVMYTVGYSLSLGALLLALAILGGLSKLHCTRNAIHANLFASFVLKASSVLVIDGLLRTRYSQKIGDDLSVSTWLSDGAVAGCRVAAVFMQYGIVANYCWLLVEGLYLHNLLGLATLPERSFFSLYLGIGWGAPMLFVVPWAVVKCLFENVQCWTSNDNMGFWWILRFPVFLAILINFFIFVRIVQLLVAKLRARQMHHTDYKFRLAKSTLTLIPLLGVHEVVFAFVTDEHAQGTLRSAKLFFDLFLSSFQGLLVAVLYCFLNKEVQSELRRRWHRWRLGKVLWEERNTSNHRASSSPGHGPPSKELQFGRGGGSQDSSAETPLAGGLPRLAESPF
protocol: cell-based or functional assay
Numbered stars: 1 amine (or outer) side, 2 acyl side, 3 side chain; on linkers, the order of the positions; unused ones are H or OH. Square brackets hold non-standard residues; d marks the D form. Primed or numbered codes have the meaning given here. Side chains are listed from the residue outwards. Ends that are not written are not given here. * marks the point of attachment. C18″ = C18 fatty acid moiety (of 2OEG-γGlu-C18, K*); γGlu = O=C(O)[C@H](CCC(=O)[*:2])N[*:1]; AEEA = NCCOCCOCC(=O)O; Aib = CC(C)(N)C(=O)O
Field: Ratio vs. GLP-1R. Provide a value for each of the binders that follow.

>  <binder>
Y[Aib]QGTFTSDK([AEEA-AEEA-γGlu-C18″])SKYLDYMMARDFVQWLIEGGPSSGAPPPS-NH2 [Peptide No. 5-1E]

>  <Ratio vs. GLP-1R>
130

$$$$
>  <binder>
H[Aib]QGTFTSDYSK([AEEA-AEEA-γGlu-C18″])YLDYMMARDFVQWLIEGGPSSGAPPPS-NH2 [Peptide No. 5D]

>  <Ratio vs. GLP-1R>
204

$$$$
>  <binder>
H[Aib]QGTFTSDYSKLLDYMMQRDFVQWLLEGGPSSGAPPPSC-NH2 [Peptide No. 5-5]

>  <Ratio vs. GLP-1R>
15

$$$$

Attention now turns to another entry.
Q: Give the reported Ratio vs. GLP-1R for this binder. Y[Aib]QGTFTSDYSKYLDYMMARDFVQWLIEGGPSSGAPPPSC-NH2 [Peptide No. 5-1]
Result: 5660
